Ref: patent US5827890A

Measurement target: Stromelysin-1 (Homo sapiens, UniProt P08254)
Sequence (P08254 100-477): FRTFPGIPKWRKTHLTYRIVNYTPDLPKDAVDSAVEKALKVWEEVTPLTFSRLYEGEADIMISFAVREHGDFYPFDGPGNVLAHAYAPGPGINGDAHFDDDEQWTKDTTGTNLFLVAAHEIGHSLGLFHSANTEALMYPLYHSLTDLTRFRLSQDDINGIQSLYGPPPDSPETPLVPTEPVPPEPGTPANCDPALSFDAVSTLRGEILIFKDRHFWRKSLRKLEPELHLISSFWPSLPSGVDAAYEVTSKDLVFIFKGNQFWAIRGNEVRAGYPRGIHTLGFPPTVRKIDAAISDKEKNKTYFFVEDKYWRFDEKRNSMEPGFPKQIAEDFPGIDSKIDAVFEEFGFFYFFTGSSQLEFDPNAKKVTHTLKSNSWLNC
Observable: Ki (µM)

• Cc1ccc(CCC[C@H](CC(=O)NO)C(=O)N[C@H](C(N)=O)C(C)(C)C)cc1 [Example 3] = 0.0102
